- Test summary: NCI Yeast Anticancer Drug Screen. Data for the cln2 rad14 strain (AID 165);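 note: 0% = growth equal to vehicle treated cultures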
- Condition description: S. cerevisiae cln2 rad14 strain, at 5.0 µM (retest, dose inferred, filed as 0.5), active compounds read high
About 79,000 compounds went through this panel and 15% of them were active in at least one assay; those are over-represented in the sample as a whole.
Listing of recorded growth inhibition by entry.
Enter your answer as a number in %; do not include the unit.

Study these solved cases before continuing.
Nc1nnc(-c2cc([N+](=O)[O-])cc([N+](=O)[O-])c2)o1 | 6
CCN(CC)C(=S)N/N=C/c1cc([N+](=O)[O-])ccc1O | -3
COc1cccc2c1C(=O)c1c(O)c(COC3CC(N)C(O)C(C)O3)cc(O)c1C2=O (configuration not stated) | 3

*Q* Requested read-out: growth inhibition. Entry: O=C1C=CC(=O)N1C1c2ccccc2-c2ccccc21
*A* 77

*Q* Continue with CCOc1ccc(-c2nc3ccc(-c4nc5ccc(N6CCN(C)CC6)cc5[nH]4)cc3[nH]2)cc1
*A* 31

*Q* Continue with CCN(CC)CCNc1nc(N)c2nc(-c3ccccc3)c(-c3ccccc3)nc2n1
*A* -1

*Q* Continue with CCCCc1ccc2nc(C)cc(N/N=C/c3ccc4c(c3)OCO4)c2c1
*A* -3

*Q* Continue with CCCCCC(CO)C(O)(C(F)(F)F)C(F)(F)F (configuration not stated)
*A* 3
